Molecular target: Human steroid 5α-reductase (Homo sapiens, UniProt P31213)
Construct: The suspension was used as the source of 5α-reductase
Sequence (P31213 1-254): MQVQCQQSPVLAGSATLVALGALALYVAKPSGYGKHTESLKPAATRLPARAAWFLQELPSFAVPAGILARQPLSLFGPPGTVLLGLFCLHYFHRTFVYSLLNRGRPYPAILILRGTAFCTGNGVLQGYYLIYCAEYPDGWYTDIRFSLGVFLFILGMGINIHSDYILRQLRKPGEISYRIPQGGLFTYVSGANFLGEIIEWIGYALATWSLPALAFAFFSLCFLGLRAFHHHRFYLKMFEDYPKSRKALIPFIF
Assay: Human steroid 5α-reductase inhibiting effect using human prostatic tissue
Conditions: human prostate homogenate, pH 5.5, 50 nM [3H]testosterone, NADPH, 37° C., 10 min; Table 5
pIC50: −log10 of the molar value.
Assign class by pIC50: not lower than 6 means 1.0; lower than 6 means 0.0.

## Input pIC50 >= 6 for COc1ccc(C(=O)NC2CCC=C3C=C(C(=O)O)CCC32C)cc1OC1CCCCCC1 (centres unmarked) [Example 39] ?
## Output 1.0

## Input # check: pIC50 of CC(C)C(Oc1cccc(C(=O)N[C@H]2CCC=C3C=C(C(=O)O)CC[C@@]32C)c1)C(C)C [Example 48] is greater than or equal to 6
## Output 1.0

## Input Say whether CC12CCC(C(=O)O)=CC1=CCCC2NC(=O)c1cccc(Oc2ccc(C3CCCCC3)cc2)c1 (centres unmarked) [Example 11] shows pIC50 of 6 or more.
## Output 1.0

## Input Given the entry CC12CCC(C(=O)O)=CC1=CCCC2NC(=O)c1cccc(OCc2ccccc2)c1 (centres unmarked) [Example 15] , answer whether its pIC50 meets or surpasses 6.
## Output 0.0

## Input In plain terms: is recorded pIC50 at least 6 for CC(C)Cc1ccc(Oc2cccc(C(=O)NC3CCC=C4C=C(C(=O)O)CCC43C)c2)cc1 (centres unmarked) [Example 9] ?
## Output 1.0

## Input In plain terms: is recorded pIC50 at least 6 for CC(C)(C)c1cc(C(=O)NC2CCC=C3C=C(C(=O)O)CCC32C)cc(C(C)(C)C)c1 (centres unmarked) [Example 43] ?
## Output 1.0

## Input Would you say CC12CCC(C(=O)O)=CC1=CCCC2NC(=O)c1ccc(Oc2ccccc2)cc1 (centres unmarked) [Example 1] shows pIC50 at minimum 6?
## Output 0.0

Source: patent US5385917A
